Value source: patent US20260193326A1

- studyTarget: Adeno-associated virus serotype 8 (AAV8) (AAV8)
- assayName: SPR, AAV amine-coupled to CM5 chip, nanobody 1-50 nM as analyte
Quick reference: kon of the listed items.

{"binder": "A4-T1 (A4-017 with a C-terminal 6xHis tag) (VHH) VHH: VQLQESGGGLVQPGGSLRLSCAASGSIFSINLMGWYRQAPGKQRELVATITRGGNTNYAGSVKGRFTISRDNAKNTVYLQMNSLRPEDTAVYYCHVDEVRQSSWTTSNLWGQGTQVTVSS", "kon [M⁻¹ s⁻¹]": 7310}
{"binder": "A4-M2 (A4-017 with an N-terminal methionine) (VHH) VHH: QVQLQESGGGLVQPGGSLRLSCAASGSIFSINLMGWYRQAPGKQRELVATITRGGNTNYAGSVKGRFTISRDNAKNTVYLQMNSLRPEDTAVYYCHVDEVRQSSWTTSNLWGQGTQVTVSS", "kon [M⁻¹ s⁻¹]": 5830}
{"binder": "A4-T2 (A4-017 with a C-terminal GGGGS linker followed by a 6xHis tag) (VHH) VHH: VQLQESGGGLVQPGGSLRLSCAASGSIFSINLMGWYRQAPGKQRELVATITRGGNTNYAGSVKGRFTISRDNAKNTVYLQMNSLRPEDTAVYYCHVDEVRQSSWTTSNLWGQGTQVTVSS", "kon [M⁻¹ s⁻¹]": 7650}
{"binder": "A4-M1 (A4-017 with an N-terminal amino acid sequence MetAlaGln) (VHH) VHH: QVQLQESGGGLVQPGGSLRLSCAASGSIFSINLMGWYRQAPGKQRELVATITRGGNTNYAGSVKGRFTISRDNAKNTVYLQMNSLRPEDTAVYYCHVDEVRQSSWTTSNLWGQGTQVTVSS", "kon [M⁻¹ s⁻¹]": 7150}
{"binder": "A4-L1 (A4-017 with a C-terminal IgA hinge followed by a 6xHis tag) (VHH) VHH: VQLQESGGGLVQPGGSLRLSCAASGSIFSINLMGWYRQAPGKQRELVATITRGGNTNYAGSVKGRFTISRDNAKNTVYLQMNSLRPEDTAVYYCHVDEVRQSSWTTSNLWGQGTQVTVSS", "kon [M⁻¹ s⁻¹]": 4230}
